# System: Actinobacillus pleuropneumoniae CVCC262
# method_description: in vitro susceptibility, MIC by mini broth dilution
# Format: cell-based
# measurement_context: strain CVCC262
Kindly supply the reported MIC values, Actinobacillus pleuropneumoniae CVCC262 values for the records listed here.
Lab book: enter the figure in ug/mi, no units written.

[ask] Looking for the measured MIC values, Actinobacillus pleuropneumoniae CVCC262 of CCCN1C[C@H](C)[C@@H](O)[C@](C)(O)[C@@H](CC)OC(=O)[C@H](C)[C@@H](O[C@H]2C[C@@](C)(OC)[C@](O)(CNc3ccccc3F)[C@H](C)O2)[C@H](C)[C@@H](O[C@@H]2O[C@H](C)C[C@H](N(C)C)[C@H]2O)[C@](C)(O)C[C@H]1C [syzx-168] , can you help?
[reply] 0.25

[ask] Quick one: MIC values, Actinobacillus pleuropneumoniae CVCC262 for CCCN1C[C@H](C)[C@@H](O)[C@](C)(O)[C@@H](CC)OC(=O)[C@H](C)[C@@H](O[C@H]2C[C@@](C)(OC)[C@](O)(CNCC(C)C)[C@H](C)O2)[C@H](C)[C@@H](O[C@@H]2O[C@H](C)C[C@H](N(C)C)[C@H]2O)[C@](C)(O)C[C@H]1C [syzx-112] ?
[reply] 0.25

[ask] MIC values, Actinobacillus pleuropneumoniae CVCC262 lookup needed for CCCN1C[C@H](C)[C@@H](O)[C@](C)(O)[C@@H](CC)OC(=O)[C@H](C)[C@@H](O[C@H]2C[C@@](C)(OC)[C@](O)(CN3CCNCC3)[C@H](C)O2)[C@H](C)[C@@H](O[C@@H]2O[C@H](C)C[C@H](N(C)C)[C@H]2O)[C@](C)(O)C[C@H]1C [syzx-136] , thanks.
[reply] 0.5

[ask] Report MIC values, Actinobacillus pleuropneumoniae CVCC262 for CCCN1C[C@H](C)[C@@H](O)[C@](C)(O)[C@@H](CC)OC(=O)[C@H](C)[C@@H](O[C@H]2C[C@@](C)(OC)[C@](O)(CNCc3cccc(OC)c3)[C@H](C)O2)[C@H](C)[C@@H](O[C@@H]2O[C@H](C)C[C@H](N(C)C)[C@H]2O)[C@](C)(O)C[C@H]1C [syzx-135] please.
[reply] 1

[ask] Sample CC[C@H]1OC(=O)[C@H](C)[C@@H](O[C@H]2C[C@@](C)(OC)[C@](O)(CNCc3ccc(OC)cc3)[C@H](C)O2)[C@H](C)[C@@H](O[C@@H]2O[C@H](C)C[C@H](N(C)C)[C@H]2O)[C@](C)(O)C[C@@H](C)NC[C@H](C)[C@@H](O)[C@]1(C)O [syzx-18] — what was its MIC values, Actinobacillus pleuropneumoniae CVCC262?
[reply] 16

[ask] Name the reported MIC values, Actinobacillus pleuropneumoniae CVCC262 value associated with the molecule CCCN1C[C@H](C)[C@@H](O)[C@](C)(O)[C@@H](CC)OC(=O)[C@H](C)[C@@H](O[C@H]2C[C@@](C)(OC)[C@](O)(CNc3ccc(C)cc3C)[C@H](C)O2)[C@H](C)[C@@H](O[C@@H]2O[C@H](C)C[C@H](N(C)C)[C@H]2O)[C@](C)(O)C[C@H]1C [syzx-229]
[reply] 4

[ask] What does the data say about its MIC values, Actinobacillus pleuropneumoniae CVCC262? Entry: CCCN1C[C@H](C)[C@@H](O)[C@](C)(O)[C@@H](CC)OC(=O)[C@H](C)[C@@H](O[C@H]2C[C@@](C)(OC)[C@](O)(CNCCCO)[C@H](C)O2)[C@H](C)[C@@H](O[C@@H]2O[C@H](C)C[C@H](N(C)C)[C@H]2O)[C@](C)(O)C[C@H]1C [syzx-146]
[reply] 0.25
